tested on: HCT-116; experiment: Cytotoxicity against human HCT116 cells assessed as inhibition of cell proliferation after 72 hrs by […]; format: functional, cell-based; conditions: HCT-116, 72 h
measurement label: pIC50
One number for each entry, as −log10 of the molar value.

CC(=O)O[C@@]12CO[C@@H]1C[C@H](O)[C@@]1(C)C(=O)[C@H](O)C3=C(C)[C@@H](OC(=O)[C@H](O)[C@@H](NC(=O)OC(C)(C)C)c4ccccc4)C[C@@](O)([C@@H](OC(=O)c4ccccc4)[C@H]21)C3(C)C [DOCETAXEL] : 7.30

# input for lookup
Task: What value of pIC50 has been recorded for this entry: CCCC/C=C\N(NC(C)=O)C(=O)C(CO)/N=[N+](\[O-])CCCCCC (configuration not stated) [GERALCIN C]
Output: 6.10

Data provenance: ChEMBL document CHEMBL2331346
